What IC50 was measured for each of the following?
- protocol-description: Cytotoxicity to uninfected THP1 macrophage cells
- reported-conditions: human, uninfected THP1 macrophage cells

Query: Give the measured IC50 of `Cc1ccccc1-c1ccc(Cn2cccc(O)c2=S)cc1` .
Response: > 10 µg/mL

Query: Give the measured IC50 of CN1CCc2c(c3ccccc3n2Cc2ccc(C(=O)NO)cc2)C1 [Tubastatin A, reference compound] .
Response: > 10 µg/mL

Query: Give the measured IC50 of `Oc1cccn(Cc2ccc(-c3ccccc3)cc2)c1=S` .
Response: > 10 µg/mL

Query: Give the measured IC50 of `Cc1cccc(-c2ccc(Cn3cccc(O)c3=S)cc2)c1` .
Response: > 10 µg/mL

Query: Give the measured IC50 of `Oc1ccc[nH]c1=S` .
Response: > 10 µg/mL

---

- Tested on: Intra-macrophage Amastigote Stage of L. donovani
- protocol-description: Amastigote-macrophage assay
- reported-conditions: THP1 host cells; 3HP values in Table S1 (not available)
endpoint: Cytotoxic activity against intra-macrophage amastigote (in words)

[
  {
    "molecule": "N#Cc1ccccc1-c1ccc(Cn2cccc(O)c2=S)cc1",
    "measured": "inactive"
  },
  {
    "molecule": "COc1ccc(Cn2ccc3ccc(C(=O)NO)cc32)cc1 [PCI-34051, reference compound]",
    "measured": "inactive"
  },
  {
    "molecule": "Cc1cccc(-c2ccc(Cn3cccc(O)c3=S)cc2)c1",
    "measured": "inactive"
  }
]
